Test system: HEK293
EXPERIMENT SUMMARY: Cytotoxic Profiling of Annotated Libraries Using Quantitative High-Throughput Screening (AID 1296008); note: potency is the fitted concentration of half-maximal effect; nearly all actives have a fitted effect of over 60% in size
MEASUREMENT CONDITIONS: Five cell lines viability, CellTiter-Glo ATP luminescence, 48-72 h
Records with an inconclusive call do not appear. Activity calls are given as the source filed them. Calls come from the whole dose curve; as a rule, active = well fitted inhibition curve with a large enough effect; inconclusive = small, poorly fitted or top-dose-only effect; inactive = flat fitted curve, though single readings scatter.

| MOLECULE | Potency |
| --- | --- |
| CCCCCCCCn1cc(CN(CC)CC)c2cc(-c3cnc(N)nc3)ccc21 | 16.4 µM (active) |
| CN(C)C(=O)COC(=O)c1cc(-c2ccc(C3CCNCC3)cc2)c2ccc(-c3ccc(C(F)(F)F)cc3)cc2c1 | 4.61 µM (active) |
| CC(C)(C[C@@](O)(Cc1cc2ccncc2[nH]1)C(F)(F)F)c1cc(F)ccc1O | 11.6 µM (active) |
| C1=C/COCc2cc(ccc2OCCN2CCCC2)Nc2nccc(n2)-c2cccc(c2)COC/1 | 2.06 µM (active) |
| Cn1ncc(Cl)c1-c1cc(C(=O)N[C@H](CN)Cc2cccc(F)c2)sc1Cl | 1.3 µM (active) |
| C=C1C(=O)O[C@H]2/C=C(/C)[C@@H](OC(C)=O)C/C=C(\C)C[C@@H](OC(=O)/C(=C/C)COC(=O)/C(=C/C)CO)[C@@H]12 | 3.17 µM (active) |
| O=C(Cc1cccc(OC(F)(F)F)c1)Nc1ccc(CCCCc2nnc(NC(=O)Cc3ccccn3)s2)nn1 | 16.6 µM (active) |
| C/C=C(/C)C(=O)O[C@H]1C=C(CO)C(=O)[C@H](OC(=O)/C(C)=C/CO)[C@H]1C(C)C | 3.6 µM (active) |
| CC(=O)OC1[C@H]2[C@@H](C[C@@H](C)[C@@H]3C=CC(=O)[C@@]13C)OC(=O)[C@@H]2C (stereo partly drawn) | 16.4 µM (active) |
| Cn1ncc(Cl)c1-c1cc(C(=O)N[C@H](CN)Cc2ccc(F)c(F)c2)sc1Cl | 1.3 µM (active) |
| COc1ccc(C#Cc2ccc(C(=O)N3CCC[C@@H](O)C3)c(F)c2)cc1 | 13 µM (active) |
| O=C(Nc1ccc(CN2CCOCC2)cc1)c1ccc(-c2cccc(Cl)c2)o1 | 9.2 µM (active) |
| CN(C)CC1CCn2c(c(C3=C(c4cn(C)c5ccccc45)C(=O)NC3=O)c3ccccc32)C1 (stereo not drawn) | 8.2 µM (active) |
| CCCc1cc(C)[nH]c(=O)c1CNC(=O)c1cc(-c2ccnc(N3CCN(C)CC3)c2)cc2c1cnn2C(C)C | 8.2 µM (active) |
| CC(C)C[C@@H]1NC(=O)[C@@H](Cc2ccccc2)NC(=O)C(CCCCCC(=O)C2CO2)NC(=O)[C@@H]2CCCCN2C1=O (stereo partly drawn) | 2.82 µM (active) |
| OC(c1ccc(-c2ccc(CN3CCN(Cc4ccncc4)CC3)cc2)c(F)c1)(C(F)(F)F)C(F)(F)F | 5.17 µM (active) |
| C#CC(=O)N(c1ccc(OC)cc1OC)C(C(=O)NCC(=O)OCC)c1cccs1 (stereo not drawn) | 0.259 µM (active) |
| Cc1nc(Nc2cnn(C3CCNCC3)c2)nc2c1N(C)C(=O)c1cc3ccccc3cc1N2C | 25.9 µM (active) |

###

EXPERIMENT SUMMARY: qHTS drug screen for cell cycle checkpoint inhibitors in PARPi-resistant BRCA-mutant ovarian cancer cell lines. (AID 1963452)
MEASUREMENT CONDITIONS: PEO1/OlaR viability, CellTiter-Glo luminescence, 96 h; measured here: PEO4 Z-AUC; stronger effect = lower value
# class assignment by measured Z-AUC: class A: < -0.8; class B: ≥ -0.8 and < -0.3; class C: ≥ -0.3

| MOLECULE | LABEL |
| --- | --- |
| Cc1cn(CCN2CCN(c3ccccc3-c3cc(C#N)cc(C(=O)NCCCN4CCCC4)c3)CC2)c2ccccc12 | class B |
| Cc1sc2c(c1C)C(c1ccc(Cl)cc1)=N[C@@H](CC(=O)Nc1ccc(OCCOCCOCCOCCNc3cccc4c3C(=O)N(C3CCC(=O)NC3=O)C4=O)cc1)c1nnc(C)n1-2 (some centres undefined) | class A |
| COC1CCN(C(=O)c2cc(Cc3n[nH]c(=O)c4ccccc34)ccc2F)CC1 | class C |
| COc1ccc(-c2cnc3c(-c4cccc5ncccc45)cnn3c2)cc1 | class B |
| O=C(N[C@H]1CCC[C@H](CO)C1)C1CCN(c2nc3cc(Cl)c(-c4ccc(Cl)cc4)cc3o2)CC1 | class B |
| Cc1[nH]c2ccccc2c1CCNCc1ccc(/C=C/C(=O)NO)cc1 | class A |
| Cc1ccc(C(=O)Nc2ccc(CN3CCN(C)CC3)c(C(F)(F)F)c2)cc1C#Cc1cnc2[nH]ncc2c1 | class C |
| CCCC1(CCC)CCC2(CCN(CCCN(CC)CC)C2)CC1 | class A |
| CCCc1cc(C)[nH]c(=O)c1CNC(=O)c1cc(-c2ccc(N3CCN(C(C)C)CC3)nc2)cc2c1cnn2C(C)C | class C |
| COc1cccc(-c2cc(F)ccc2C2Cc3nc(N)nc(C)c3C(=O)N2)n1 (centres undefined) | class B |
| Cc1[nH]c2ccc(F)cc2c1-c1nc2c3cccnc3c3ncccc3c2[nH]1 | class A |
| CCOC(=O)[C@@]1(CCCCCCOc2ccc(Cl)cc2)CO1 | class C |
| Cn1ncc(Cl)c1-c1cc(C(=O)N[C@H](CN)Cc2ccc(F)c(F)c2)sc1Cl | class C |
| CCCC(CCC)C(=O)Nc1ccn([C@@H]2O[C@H](CO)[C@@H](O)C2(F)F)c(=O)n1 | class A |
| Cc1ccc(NC(=O)c2ccc(CN3CCNCC3)cc2)cc1Nc1nccc(-c2cccnc2)n1 | class C |
| Cn1cc(-c2ccc(F)c(C(F)(F)F)c2)nc1C1CCN(c2ncnc3[nH]ncc23)CC1 | class B |
| NC(=O)c1ccccc1Nc1ccnc(Nc2cccc(O)c2)n1 | class A |
| CN[C@H]1CC[C@@H](c2ccc(Cl)c(Cl)c2)c2ccccc21 | class C |
| Cc1cc(-c2cc(OC(=O)c3ccccc3)ccc2Cl)cc2nnc(Nc3ccc(OCCN4CCCC4)cc3)nc12 | class A |
